Values were extracted from patent US20090311283A1.

- test target: HLA-A*0301 (human)
- measurement description: inhibition of binding of a 125I-labelled probe peptide to purified HLA-A*0301, gel filtration; relative to the standard peptide
readout kind: binding affinity ratio (IC50 of standard peptide / IC50 of test peptide)
Numbers only.

Consider the following illustrative entries.
SALNPADDPSR (modifications not checked) [HBV POL 771 peptide …]: -0.0004
SSAGPCALRF (modifications not checked) [HBV X 64 peptide …]: -0.0003
RTPSPRRR (modifications not checked) [HBV NUC 188 peptide RTPSPRRR]: -0.0002

Consider the additional binder presented here.
# binding affinity ratio (IC50 of standard peptide / IC50 of test peptide) of SAGPCALRF (modifications not checked) [HBV X 65 peptide …] = -0.0003
